- Test system: lambsquarters (Chenopodium album, CHEAL)
- test: Post-emerge test, greenhouse herbicide activity screening
- Type: in vivo
- experimental_setup: 250 g ai/ha; phytotoxicity rating 0-100 (0 no damage, 100 complete death), 14 days after application
Here the recorded Post-emerge Herbicidal Activity CHEAL is given for each entry.
Lab note: record the figure alone, no unit after it.

Solved entries:
[
  {
    "compound": "CCOC(=O)C(C)Nc1c(OC)c(Cl)cc(F)c1-n1c(=O)cc(C(F)(F)F)n(C)c1=O (centres unmarked) [Compound 1-55]",
    "quantitative_result": 20
  },
  {
    "compound": "COc1c(Cl)cc(F)c(-n2c(=O)cc(C(F)(F)F)n(C)c2=O)c1NC(=O)C(C)(C)C [2-3]",
    "quantitative_result": 30
  },
  {
    "compound": "COc1c(Cl)cc(F)c(-n2c(=O)c(NC(=O)C(F)(F)F)c(C(F)(F)F)n(C)c2=O)c1NC(=O)C(F)(F)F [2-12]",
    "quantitative_result": 40
  },
  {
    "compound": "COc1c(Cl)cc(F)c(-n2c(=O)cc(C(F)(F)F)n(C)c2=O)c1NS(=O)(=O)c1ccc(C)cc1 [2-26]",
    "quantitative_result": 20
  }
]

Inquiry: I'd like to know its Post-emerge Herbicidal Activity CHEAL. The compound in question is COc1c(Cl)cc(F)c(-n2c(=O)cc(C(F)(F)F)n(C)c2=O)c1NC(=O)C=C(C)C [2-7]
Reply text: 50

Inquiry: I'd like to know its Post-emerge Herbicidal Activity CHEAL. The compound in question is Cn1c(C(F)(F)F)cc(=O)n(-c2c(N)cc(OC(F)F)cc2F)c1=O [Compound 1-51]
Reply text: 95

Inquiry: I'd like to know its Post-emerge Herbicidal Activity CHEAL. The compound in question is COc1c(Cl)cc(F)c(-n2c(=O)cc(C(F)(F)F)n(C)c2=O)c1N(C(=O)C=C(C)C)C(=O)C=C(C)C [2-8]
Reply text: 60

Inquiry: I'd like to know its Post-emerge Herbicidal Activity CHEAL. The compound in question is COc1c(Cl)cc(F)c(-n2c(=O)cc(C(F)(F)F)n(C)c2=O)c1N(C)C [Compound 1-11]
Reply text: 95

----------
- Tested on: large crabgrass (Digitaria sanguinalis, DIGSA)
- test: Post-emerge test, greenhouse herbicide activity screening
- Assay type: in vivo
- experimental_setup: Rate 63 g ai/ha; rating scale 0-100 (0 no damage, 100 complete death); 14 days after application
test_readout: Post-emerge Herbicidal Activity, phytotoxicity rating DIGSA

[
  {
    "compound": "COc1c(Cl)cc(F)c(-n2c(=O)cc(C(F)(F)F)n(C)c2=O)c1CC(Cl)C(=O)OC(C)(C)C (stereo not shown)",
    "result": 20
  },
  {
    "compound": "CCOC(=O)CCc1c(OC)c(Cl)cc(F)c1-n1c(=O)cc(C(F)(F)F)n(C)c1=O",
    "result": 80
  },
  {
    "compound": "CCOC(=O)C(Cl)Cc1c(C)c(Cl)cc(F)c1-n1c(=O)cc(C(F)(F)F)n(C)c1=O (stereo not shown)",
    "result": 0
  }
]

For the next question, use this compound.
Inquiry: Could you share what Post-emerge Herbicidal Activity, phytotoxicity rating DIGSA was measured for COc1c(Cl)cc(F)c(-n2c(=O)cc(C(F)(F)F)n(C)c2=O)c1CC(C)(Cl)C(=O)OC(C)C (stereo not shown) , tested on large crabgrass (Digitaria sanguinalis, DIGSA)?
Reply text: 60
